These measurements were taken from paper PMC8298264.

# Tested on: human HL60 cells
# assay overview: SWATH-MS proteomics, differential protein representation, akirin2 KO vs WT HL60 cells
# Assay type: cell-based
# applied conditions: KO vs WT HL60 cells; sheet "Under-represented in KO"
recorded endpoint: Fold Change
# respond with the number and nothing more

## Input Consider the molecule sp¦O96011¦PX11B_HUMAN (protein, UniProt O96011 1-259, looked up) Peroxisomal membrane protein …: MDAWVRFSAQSQARERLCRAAQYACSLLGHALQRHGASPELQKQIRQLESHLSLGRKLLRLGNSADALESAKRAVHLSDVVLRFCITVSHLNRALYFACDNVLWAGKSGLAPRVDQEKWAQRSFRYYLFSLIMNLSRDAYEIRLLMEQESSACSRRLKGSGGGVPGGSETGGLGGPGTPGGGLPQLALKLRLQVLLLARVLRGHPPLLLDVVRNACDLFIPLDKLGLWRCGPGIVGLCGLVSSILSILTLIYPWLRLKP and give its recorded Fold Change.
## Output 0.5344
